# System: UO-31 renal
# METHOD_NOTES: NCI tumour cell line growth inhibition, 48 h
Reported TGI values for a set of compounds
Provide only the numeric value, understood in µM.

// below: answered compounds
>>> result_number("c1ccc2c(c1)-c1ccccc1C2NC1=NCCO1")
50.7
>>> result_number("Nc1c(C(=O)Nc2cccc(C(F)(F)F)c2)sc2nc3c(cc12)CCCCCC3")
8.57
>>> result_number("Nc1ncnc2c1ccn2-c1cccc(NC(=O)c2ccc(N3CCOCC3)c(C(F)(F)F)c2)c1")
6.73
>>> result_number("CCOC(=O)c1cc([N+](=O)[O-])c(Sc2ncnc3nc[nH]c23)c([N+](=O)[O-])c1")
7.08

Kindly consider the entry below.
For N=c1oc2cc(O)ccc2cc1C(=O)Nc1cccc2ccccc12 , what is its reported TGI?
19.9

---

# Test system: NCI-H522 lung
# METHOD_NOTES: NCI tumour cell line growth inhibition, 48 h; in the data active means GI50 below about 0.43 µM; inactive means the rest
Hello, when you answer, please use one of the following outcomes: 1.0 (active), 0.0 (inactive)

>>> class_name("COCCCC(NC(=O)C(CC(C)C)NC(=O)OCc1ccc(OC)cc1)C(=O)OC (centres undefined)")
0.0
>>> class_name("CCCCOC(=O)c1c(C)[nH]c(/C=C2\\N=C(c3ccc[nH]3)C=C2OC)c1C")
1.0
>>> class_name("CO/C(=C1/NC(=O)C(Cc2ccc(O)c(Br)c2)N(C)C(=O)C(C)NC(=O)CCC/C=C(\\C)CCC(C)OC1=O)c1ccccc1 (centres undefined)")
1.0
>>> class_name("CC(=O)Nc1cc2c3c(cccc3c1)-c1ccccc1-2")
0.0
>>> class_name("COC(=O)Nc1nc2ccc(C(=O)c3ccc(F)cc3)cc2[nH]1")
1.0
>>> class_name("COc1c(B(O)O)cccc1-c1nc2c(F)cc3n[nH]c(C)c3c2c2c1CCCC2")
0.0

Assay result, entry CCOc1ccc2c(c1)C(=O)c1c-2n(CCCN=[N+]=[N-])c(=O)c2cc([N+](=O)[O-])ccc12 — outcome?
0.0

Subsequent entry: COC(=O)c1c2c(c(C)[n+]([O-])c1C)C(=O)C(NCc1ccc(O)cc1)=CC2=O
0.0

Subsequent entry: Nc1nc(N)c2c(n1)CCC(S(=O)(=O)c1ccc3ccccc3c1)C2 (centres undefined)
0.0

---

# Test system: SNB-75 CNS
# METHOD_NOTES: NCI tumour cell line growth inhibition, 48 h; in the data active means GI50 below about 0.43 µM; inactive means the rest
Hello, when you answer, please use one of the following outcomes: active, inactive

Record excerpt, results attached:
>>> class_name("COC(=O)[C@]12CC[C@@H](C)[C@H](C)[C@@H]1C1=CC[C@@H]3[C@@](C)(CC#N)C4=C(C[C@@]3(C)[C@]1(C)CC2)OC[C@]4(C)C=O")
"inactive"
>>> class_name("O=C1OCC2=C1C(c1cccc(Cl)c1)c1cc3c(cc1N2CCO)CCC3 (stereo not given)")
"active"
>>> class_name("CC(=O)N[C@@H](Cc1ccc(OP(=O)(O)O)cc1)C(=O)N[C@H]1CCC(=O)N2CCC[C@@H](C(=O)NC3CCc4ccccc43)N2C1=O (stereo not given in full)")
"inactive"
>>> class_name("COc1cc(C2CC(c3cccc(Nc4ccnc5cc(Cl)ccc45)c3)=NN2c2ccccc2)cc(OC)c1OC (stereo not given)")
"inactive"
>>> class_name("Nc1ncnc2c1ccn2-c1cccc(NC(=O)c2ccc(N3CCOCC3)c(C(F)(F)F)c2)c1")
"inactive"
>>> class_name("Cc1cc(-c2cc(OC(=O)c3ccccc3)ccc2Cl)cc2nnc(Nc3ccc(OCCN4CCCC4)cc3)nc12")
"inactive"

Assay result, entry Cc1cnc(-c2ccc(-c3ccc(NC(=O)Nc4c(F)cc(F)cc4F)cc3F)c3c2C(=O)NC3)[nH]1 — outcome?
inactive

Subsequent entry: CCOc1ccc2c(c1)C(=O)c1c-2n(CCCN=[N+]=[N-])c(=O)c2cc([N+](=O)[O-])ccc12
inactive

Subsequent entry: O=C1c2ccc3c4c(ccc(c24)C(=O)N1CCNCc1ccccc1)C(=O)N(CCNCc1ccccc1)C3=O
inactive

Subsequent entry: Cn1c(=O)c(Oc2ccc(F)cc2F)cc2cnc(NCC(C)(C)O)nc21
inactive
